# Tested on: Escherichia coli
# Assay Details: Antibacterial activity against Escherichia coli ATCC 11303 after 24 hrs by NCCLS M7-A6 broth dilution method
# Type: functional
# Protocol Conditions: ATCC 11303, 24 h
Measured Endpoint: log10 of MIC (log10 of the value in µg/mL)
Record value = log10 of MIC given in µg/mL.

Below are worked cases with known answers.
{"Molecule": "Cc1oc(-c2ccccc2)nc1CCCc1nc2cc(C[C@@H](Oc3ccc(-c4ccccc4)cc3)C(=O)O)ccc2o1", "Target Of Assay": "Escherichia coli", "Measured Endpoint": "log10 of MIC", "Measured": 1.10}
{"Molecule": "Cc1oc(-c2ccccc2)nc1CCCc1nc2cc(C[C@H](Oc3ccccc3)C(=O)O)ccc2o1", "Target Of Assay": "Escherichia coli", "Measured Endpoint": "log10 of MIC", "Measured": 2.00}
{"Molecule": "Cc1oc(-c2ccccc2)nc1CCCc1nc2cc(C[C@H](Oc3ccc(Cl)cc3)C(=O)O)ccc2o1", "Target Of Assay": "Escherichia coli", "Measured Endpoint": "log10 of MIC", "Measured": 1.40}
{"Molecule": "CC(C)(O/N=C(\\C(=O)N[C@@H]1C(=O)N2C(C(=O)[O-])=C(C[n+]3ccccc3)CS[C@H]12)c1csc(N)n1)C(=O)O", "Target Of Assay": "Escherichia coli", "Measured Endpoint": "log10 of MIC", "Measured": 2.30}

Look at this compound and give its reported log10 of MIC. COc1ccc(O[C@@H](Cc2ccc3oc(CCCc4nc(-c5ccccc5)oc4C)nc3c2)C(=O)O)cc1
2.00

Look at this compound and give its reported log10 of MIC. Cc1oc(-c2ccccc2)nc1CCCc1nc2cc(C[C@H](Oc3ccc(OCc4ccccc4)cc3)C(=O)O)ccc2o1
0.80

====

# System: Escherichia coli
# Assay Details: Antibacterial activity against Escherichia coli ATCC 11303 after 24 hrs by NCCLS M7-A6 broth dilution method
# Assay type: functional
# Protocol Conditions: ATCC 11303, 24 h
Response field label takes TRUE when MIC is strictly below 20 µg/mL and FALSE in all other cases.

Sample answers from the record:
{"Molecule": "COC(=O)[C@H](Cc1ccc2oc(CCCc3nc(-c4ccccc4)oc3C)nc2c1)Oc1ccc(-c2ccccc2)cc1", "Class Label": "FALSE"}
{"Molecule": "Cc1oc(-c2ccccc2)nc1CCCc1nc2cc(C[C@H](Oc3ccc(C(C)(C)C)cc3)C(=O)O)ccc2o1", "Class Label": "TRUE"}
{"Molecule": "CC1=C(C(=O)O)N2C(=O)[C@@H](NC(=O)[C@H](N)C3=CCC=CC3)[C@H]2SC1", "Class Label": "FALSE"}
{"Molecule": "Cc1oc(-c2ccccc2)nc1CCCc1nc2cc(C[C@H](Oc3ccc(Br)cc3)C(=O)O)ccc2o1", "Class Label": "TRUE"}
{"Molecule": "CC1(C)S[C@@H]2[C@H](NC(=O)Cc3ccccc3)C(=O)N2[C@H]1C(=O)[O-].[Na+] [PENICILLIN G SODIUM]", "Class Label": "TRUE"}

MIC strictly < 20 µg/mL for this molecule? Cc1oc(-c2ccccc2)nc1CCCc1nc2cc(C[C@H](Oc3ccc(C#N)cc3)C(=O)O)ccc2o1
FALSE

MIC strictly < 20 µg/mL for this molecule? Cc1oc(-c2ccccc2)nc1CCCc1nc2cc(C[C@H](Oc3cccnc3)C(=O)O)ccc2o1
FALSE

MIC strictly < 20 µg/mL for this molecule? CO[C@@H](Cc1ccc2oc(CCCc3nc(-c4ccccc4)oc3C)nc2c1)C(=O)O
FALSE

MIC strictly < 20 µg/mL for this molecule? Cc1oc(-c2ccccc2)nc1CCCc1nc2cc(C[C@@H](Oc3ccc(C(C)(C)C)cc3)C(=O)O)ccc2o1
FALSE
